The reader will find reported cGMP response rel. to 1 uM CNP22; 10 nM peptide, NIH3T3 cells values listed item by item below.
system: T1, NPR-B (natriuretic peptide receptor B), murine, expressed endogenously on NIH3T3 cells (murine, UniProt Q6VVW5 17-1047)
T1 sequence (looked up): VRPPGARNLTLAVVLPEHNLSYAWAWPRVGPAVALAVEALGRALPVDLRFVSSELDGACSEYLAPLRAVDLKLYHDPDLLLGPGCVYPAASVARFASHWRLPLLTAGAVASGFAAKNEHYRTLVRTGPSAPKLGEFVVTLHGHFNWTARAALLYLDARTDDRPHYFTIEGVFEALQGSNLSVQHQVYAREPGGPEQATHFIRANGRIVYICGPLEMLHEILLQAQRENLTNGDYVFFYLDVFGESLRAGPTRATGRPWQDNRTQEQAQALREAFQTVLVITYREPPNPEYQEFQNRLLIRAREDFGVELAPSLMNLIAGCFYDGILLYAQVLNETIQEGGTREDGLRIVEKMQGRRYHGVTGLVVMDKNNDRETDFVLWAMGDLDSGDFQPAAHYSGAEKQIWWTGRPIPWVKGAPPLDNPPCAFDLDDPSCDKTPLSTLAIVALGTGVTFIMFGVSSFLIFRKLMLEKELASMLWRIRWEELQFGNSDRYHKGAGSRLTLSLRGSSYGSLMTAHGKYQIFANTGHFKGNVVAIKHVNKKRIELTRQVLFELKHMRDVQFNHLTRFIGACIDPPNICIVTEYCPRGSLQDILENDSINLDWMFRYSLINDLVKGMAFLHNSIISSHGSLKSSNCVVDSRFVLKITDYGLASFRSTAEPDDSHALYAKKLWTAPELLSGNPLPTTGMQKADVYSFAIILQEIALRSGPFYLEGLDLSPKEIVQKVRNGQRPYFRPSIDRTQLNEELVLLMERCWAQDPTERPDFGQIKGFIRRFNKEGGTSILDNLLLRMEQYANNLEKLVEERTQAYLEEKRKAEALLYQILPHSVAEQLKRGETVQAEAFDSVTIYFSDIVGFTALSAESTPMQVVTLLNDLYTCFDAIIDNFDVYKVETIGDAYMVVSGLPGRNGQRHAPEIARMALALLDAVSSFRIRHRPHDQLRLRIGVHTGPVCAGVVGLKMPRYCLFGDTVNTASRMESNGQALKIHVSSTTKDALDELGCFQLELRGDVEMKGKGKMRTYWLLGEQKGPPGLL
test-protocol: cell-based or functional assay
Where no end group is shown, it is not given here. [ ]: non-standard residue; d: D form. Cit = NC(=O)NCCC[C@H](N)C(=O)O
measured-attribute: cGMP response rel. to 1 uM CNP22; 10 nM peptide, NIH3T3 cells

1) GLSRGCFGLKLDRINSMSGLGC [CNP22, K4R, G15N]    4 rel. to 1 uM CNP22 (100)
2) GLSRGCFGL[Cit]LDRIGSMSGLGC (ends and bridges not checked) [CNP22, K4R, K10Cit]    6 rel. to 1 uM CNP22 (100)
3) GLSRGCFGLKLDRISSMSGLGC [CNP22, K4R, G15S]    13 rel. to 1 uM CNP22 (100)
4) GLSRGCFGLKLDRIGSNSGLGC [CNP22, K4R, M17N]    40 rel. to 1 uM CNP22 (100)
5) GLSRGCFGLKLDRIGSMSGLRC [CNP22, K4R, G21R]    20 rel. to 1 uM CNP22 (100)
6) ELSEGCFGLKLDRIGSMSGLGC [CNP22, G1E, K4E]    11 rel. to 1 uM CNP22 (100)
7) GLSRGCFTLKLDRIGSMSGLGC [CNP22, K4R, G8T]    11 rel. to 1 uM CNP22 (100)

The values you see were collected from patent USRE48267E1.
